experimental.protocol: chemical genetic growth profiling, strain panel (AID 1159580);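 note: tested at 20 µM; growth read once vehicle control cultures reached saturation at 30 °C; 1 = growth at the plate median or of vehicle wells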
test.parameters: S. cerevisiae deletion strains, growth OD, locus YLR058C, strain SHM2 (second series), stronger effect = lower value
About 2,000 (36%) of roughly 5,500 compounds were called active. Inconclusive results (about 18%) are left out. This is one part of the list.
Entries and their measured normalized growth follow.

compound	normalized growth
Cc1ccc(Cl)cc1NC(=S)NCCO	1.01 (inactive)
Cc1ccc(CS/C(N)=N\N)cc1	0.99 (inactive)
COC(=O)c1ccc(S(=O)(=O)NCc2ccccc2)n1C	1.03 (inactive)
Cc1onc(-c2ccccc2Cl)c1C(=O)Nc1ccc(S(=O)(=O)Nc2nccs2)cc1	0.982 (inactive)
COC(=O)c1ccc(-c2ccccc2F)cc1	0.99 (inactive)
C/C(=N/NC1=NCCN1)c1ccc(F)cc1	1.01 (inactive)
CC(C)(C)OC(=O)N1CCN(Cc2ccccc2)CC1	0.986 (inactive)
O=C(Nc1cc(C(F)(F)F)cc(C(F)(F)F)c1)C(Sc1ccccn1)c1ccccc1 (stereo not drawn)	0.978 (inactive)
CSc1nc2ccc(NC(=O)c3c(-c4ccccc4)noc3C)cc2s1	0.996 (inactive)
O=C(O)c1cc(C(F)(F)F)ccc1F	0.983 (inactive)
O=C(CC(Nc1ccccc1)c1ccccc1)C1CC1 (stereo not drawn)	0.998 (inactive)
ON(Cc1c(F)cccc1Cl)Cc1c(F)cccc1Cl	1 (inactive)
Cc1cc(/C=N/NC(N)=S)c2c(C)ccc(C(C)C)cc1-2	1.03 (inactive)
CCOC(=O)c1c(-c2ccc(F)cc2)csc1N	0.897 (active)
Fc1cccc(Cl)c1Cn1nnc(N2CCCCC2)n1	0.969 (inactive)
Cc1onc(-c2ccccc2Cl)c1C(=O)Nc1ccc2c(c1)OCO2	1.02 (inactive)
Cc1cccc2nc(-c3ccccc3)oc(=O)c12	0.968 (inactive)
O=c1[nH]c(-c2cc(Br)cs2)nc2ccc(Cl)cc12	1 (inactive)
O=S(=O)(c1cc(Br)c(Br)s1)N1CCCCC1	1.01 (inactive)
CCOC(=O)c1c(C)csc1N	1.01 (inactive)
COc1nc(N)nc(SC)n1	0.989 (inactive)
O=C(CCCCCCCCC(=O)c1ccccc1)c1ccccc1	0.998 (inactive)
O=C1c2cccc3c(SCCO)ccc(c23)C(=O)N1CCc1ccccn1	0.991 (inactive)
CC(C)c1nc2ccccc2[nH]1	1.01 (inactive)
CC/C(=N/Oc1ccc(C(F)(F)F)cn1)c1ccc(-c2ccccc2F)cc1	0.999 (inactive)
COc1ccc(OC)c(S(=O)(=O)NCc2c(F)cccc2Cl)c1	1.02 (inactive)
COC(=O)c1ccc(C#Cc2ccccc2)o1	0.992 (inactive)
CCOC(=O)c1c(N=Cc2cc(Br)c(Br)cc2O)sc2c1CCCC2	0.916 (active)
c1ccc(CSC2=NCCCN2)cc1	1.01 (inactive)
NC(=O)CCSCCC(N)=O	0.997 (inactive)
CCC(=O)c1ccc(-c2ccccc2)cc1	0.953 (inactive)
S=c1[nH]c2ccccc2[nH]1	0.991 (inactive)
CC(C)(O)C#Cc1ccc(/C=N\O)cc1	1.01 (inactive)
CC(C)(C)c1nc(N)sc1Br	1 (inactive)
Cc1ccc(CSC(=N)N)cc1	1.01 (inactive)
CC(=O)c1ccc(-c2ccc(C(C)=O)cc2)cc1	0.987 (inactive)
CCNS(=O)(=O)c1cc(Cl)sc1Cl	1.04 (inactive)
BrC12CC3CC(CC(C3)C1)C2	1.02 (inactive)

###

experimental.protocol: chemical genetic growth profiling, strain panel (AID 1159580);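 note: tested at 20 µM; growth read once vehicle control cultures reached saturation at 30 °C; 1 = growth at the plate median or of vehicle wells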
test.parameters: S. cerevisiae deletion strains, growth OD, locus YOR270C, strain vph1, stronger effect = lower value
In all, about 5,500 compounds went through this assay and about 2,000 (36%) were called active. Roughly 18% stayed inconclusive and do not appear here. The list shows a part of the results.
Measured normalized growth of individual entries

molecule	normalized growth
CCC(COC(=O)c1cc(OC)c(OC)c(OC)c1)(c1ccccc1)N(C)C (stereo unspecified)	0.955
Nc1nc(N)c2nc(CNc3ccc(C(=O)NC(CCC(=O)O)C(=O)O)cc3)cnc2n1 (stereo unspecified)	1.05
O=C(O)CCC(=O)c1ccc(-c2ccccc2)cc1	0.95
CC1=C(/C=C/C(C)=C/C=C/C(C)=C/C=C/C=C(C)/C=C/C=C(C)/C=C/C2=C(C)CCCC2(C)C)C(C)(C)CCC1	0.875
C[C@](N)(Cc1ccc(O)cc1)C(=O)O	1.01
Nc1nc2ncc(CNc3ccc(C(=O)N[C@@H](CCC(=O)O)C(=O)O)cc3)nc2c(=O)[nH]1	0.99
NC(=O)c1cnccn1	1.02
CN(Cc1cnc2nc(N)nc(N)c2n1)c1ccc(C(=O)NC(CCC(=O)O)C(=O)O)cc1 (stereo unspecified)	0.957
CC(Cc1ccc(O)c(O)c1)(NN)C(=O)O (stereo unspecified)	1.11
COc1ccccc1OCC(O)CN1CCN(CC(=O)Nc2c(C)cccc2C)CC1 (stereo unspecified)	0.991
CCOC(=O)C(C)(N)Cc1ccc(O)c(O)c1 (stereo unspecified)	0.951

###

experimental.protocol: chemical genetic growth profiling, strain panel (AID 1159580);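 note: tested at 20 µM; growth read once vehicle control cultures reached saturation at 30 °C; 1 = growth at the plate median or of vehicle wells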
test.parameters: S. cerevisiae deletion strains, growth OD, locus YEL003W, strain gim4
Out of some 5,500 compounds screened, about 2,000 (36%) were called active. Another 18% or so got no clear call; they are omitted. No stated cut-off is given here; in the data, active means normalized growth mostly below about 0.91 (no sharp cut-off); inconclusive means no clear call, values can overlap the other calls; inactive means mostly above about 0.92. This is one part of the list.
Labels: active, inactive

compound	class
NCCCCN=C(N)N	inactive
CCCNC(C)C(=O)Nc1ccccc1C (stereo not given)	inactive
CCCc1cc(OC)c2c(c1)OCO2	inactive
Cc1cccc(CN2CCN(C(c3ccccc3)c3ccc(Cl)cc3)CC2)c1 (stereo not given)	active
CC12CCC3C(CC=C4CC(O)CCC43C)C1CCC2=O (stereo not given)	active
Nc1nccs1	inactive
CC(=O)O[C@H]1CC[C@@]2(C)C(=CCC3C2CC[C@@]2(C)C3CC[C@@H]2C(C)CCCC(C)C)C1 (stereo not given in full)	inactive
NC(=O)c1cnccn1	inactive
CC(COc1ccccc1)N(CCCl)Cc1ccccc1 (stereo not given)	inactive
CC(=O)O[C@H]1CC[C@@]2(C)C(=CCC3C2CC[C@]2(C)C(=O)CCC32)C1 (stereo not given in full)	inactive
NC(=O)N/N=C\c1ccc([N+](=O)[O-])o1	inactive
O=C1N=C(O)CN1/N=C\c1ccc(-c2ccc([N+](=O)[O-])cc2)o1	inactive
COc1ccc(-c2cc(C(F)F)nn2-c2ccc(S(N)(=O)=O)cc2)cc1F	inactive
Nc1ccc(S(=O)(=O)Nc2nccs2)cc1	inactive
COc1ccc2c(c1O)-c1c(OC)c(OC)cc3c1[C@H](C2)N(C)CC3	inactive
CCN(CC)CCOC(=O)C(Cc1cccc2ccccc12)CC1CCCO1 (stereo not given)	inactive
CCOC(=O)c1ccc(N)cc1	inactive
O=C(NC(=O)c1c(F)cccc1F)Nc1cc(Cl)c(OC(F)(F)C(F)C(F)(F)F)cc1Cl (stereo not given)	inactive
CC[C@@H]1[C@@H](O)N2C3C[C@H]1C1C(O)[C@]4(C[C@@H]12)c1ccccc1N(C)[C@@H]34 (stereo not given in full)	inactive
O=C1OCCN1/N=C\c1ccc([N+](=O)[O-])o1	inactive
S=c1[nH]c2ccccc2s1	inactive
C=CCc1cc(OC)c2c(c1OC)OCO2	inactive
COc1ccccc1OCC(O)CN1CCN(CC(=O)Nc2c(C)cccc2C)CC1 (stereo not given)	inactive
CN1CCc2cccc3c2C1Cc1ccc(O)c(O)c1-3 (stereo not given)	inactive
O=C(O)c1ccc2c(c1)OCO2	inactive

###

experimental.protocol: chemical genetic growth profiling, strain panel (AID 1159580);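 note: tested at 20 µM; growth read once vehicle control cultures reached saturation at 30 °C; 1 = growth at the plate median or of vehicle wells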
test.parameters: S. cerevisiae deletion strains, growth OD, locus YDR069C, strain doa4, stronger effect = lower value
Out of some 5,500 compounds screened, about 2,000 (36%) were called active. Roughly 18% stayed inconclusive and do not appear here. The list shows a part of the results.
// reported normalized growth per item
metric: normalized growth

compound	result
COc1ccc(CN(CCN(C)C)c2ncccn2)cc1	1 (inactive)
N[C@@H](CCC(=O)N[C@@H](CCSC(CC(=O)O)C(=O)O)C(=O)NCC(=O)O)C(=O)O (stereo not given in full)	0.987 (inactive)
CC12CCC(CC1)C(C)(C)O2	0.966 (inactive)
CC1(C)CC2C1CCC1(C)OC2(C)CCC1O (stereo not given)	1.02 (inactive)
COC(=O)[C@H]1[C@H]2C[C@@H]3c4[nH]c5cc(OC)ccc5c4CCN3C[C@H]2C[C@@H](OC(=O)c2cc(OC)c(OC)c(OC)c2)[C@@H]1OC	0.963 (inactive)
O=C1N=C(O)CN1/N=C\c1ccc(-c2ccc([N+](=O)[O-])cc2)o1	0.987 (inactive)
CS(=O)(=O)OCCCCOS(C)(=O)=O	1.02 (inactive)
O=C(O)CNCP(=O)(O)O	1.02 (inactive)
C[C@@H]1C[C@@H]([C@H](O)CC2CC(=O)NC(=O)C2)C(=O)[C@@H](C)C1	0.0601 (active)
O=c1cccc2n1C[C@H]1CNCC2C1	1.01 (inactive)
CO[C@@H]1[C@@H](O[C@@H]2O[C@H](C)[C@@H](O[C@H]3C[C@@](C)(O)[C@H](O)[C@H](C)O3)[C@H](N(C)C)[C@H]2O)[C@@H](CC=O)C[C@@H](C)[C@@H](O[C@H]2CC[C@H](N(C)C)[C@@H](C)O2)/C=C/C=C/C[C@H](C)OC(=O)C[C@H]1O	1 (inactive)
COc1ccc(C[C@H](N)C(=O)N[C@@H]2[C@@H](CO)OC(n3cnc4c(N(C)C)ncnc43)[C@@H]2O)cc1 (stereo not given in full)	0.981 (inactive)
NC(=O)c1cnccn1	0.982 (inactive)
C#C[C@]1(O)CCC2C3CCc4cc(OC)ccc4C3CC[C@@]21C (stereo not given in full)	1.01 (inactive)
Nc1nc2c(c(=O)[nH]1)N(C=O)C(CNc1ccc(C(=O)N[C@@H](CCC(=O)O)C(=O)O)cc1)CN2 (stereo not given in full)	0.94 (inactive)
COc1ccc(/C=C/C(=O)c2ccc(O)cc2O)cc1	0.815 (active)
NC(=O)c1ccc(N)nc1	0.981 (inactive)
CCCNC(C)C(=O)Nc1ccccc1C (stereo not given)	1.02 (inactive)
COc1cc(C)c2c(c1C=O)Oc1c(c(C)c(O)c3c1C(O)OC3=O)OC2=O (stereo not given)	1 (inactive)
CCOC(=O)c1ccc(N)cc1	1.04 (inactive)
CCOP(=S)(OCC)Oc1ccc2c(C)c(Cl)c(=O)oc2c1	0.938 (inactive)
O=C(O)P(=O)(O)O	0.983 (inactive)
C=CCN1CC[C@]23c4c5ccc(O)c4OC2C(=O)CC[C@@]3(O)[C@H]1C5 (stereo not given in full)	0.943 (inactive)
CCN(CC)CCOC(=O)C(Cc1cccc2ccccc12)CC1CCCO1 (stereo not given)	1.02 (inactive)
O=C(O)c1cc(=O)c2c(OCC(O)COc3cccc4oc(C(=O)O)cc(=O)c34)cccc2o1	0.971 (inactive)
CCn1cc(C(=O)O)c(=O)c2cnc(N3CCCC3)nc21	1 (inactive)
CCC(COC(=O)c1cc(OC)c(OC)c(OC)c1)(c1ccccc1)N(C)C (stereo not given)	0.992 (inactive)
OC/C=C/c1ccc(O)c(O)c1	1.01 (inactive)
c1ccc(-c2ccc(C(c3ccccc3)n3ccnc3)cc2)cc1 (stereo not given)	0.0703 (active)
O=C(O)c1cc(=O)c(O)c2c(O)c(O)ccc2c1	0.974 (inactive)
NCc1ccc(S(N)(=O)=O)cc1	1.01 (inactive)
c1ccc2[nH]c(-c3cscn3)nc2c1	0.988 (inactive)
NC(=O)N/N=C\c1ccc([N+](=O)[O-])o1	0.975 (inactive)
COc1ccc(/C=C/C(=O)c2cc(O)ccc2O)cc1	0.844 (active)
Nc1nc(N)c2nc(CNc3ccc(C(=O)NC(CCC(=O)O)C(=O)O)cc3)cnc2n1 (stereo not given)	0.985 (inactive)
Nc1nc2ncc(CNc3ccc(C(=O)N[C@@H](CCC(=O)O)C(=O)O)cc3)nc2c(=O)[nH]1	0.999 (inactive)
COc1ccc(-c2cc(C(F)F)nn2-c2ccc(S(N)(=O)=O)cc2)cc1F	1.01 (inactive)
O=C(O)CCCCC1SCC2NC(=O)NC21 (stereo not given)	0.973 (inactive)
COc1ccc2c(c1O)-c1c(OC)c(OC)cc3c1[C@H](C2)N(C)CC3	0.989 (inactive)
Cc1cccc(CN2CCN(C(c3ccccc3)c3ccc(Cl)cc3)CC2)c1 (stereo not given)	0.787 (active)
CCOc1ccc2c(c1)C(C)=CC(C)(C)N2	0.995 (inactive)
COc1cc(/C=C/C(=O)O)cc(OC)c1OC	0.991 (inactive)
O=C(O)CCC(=O)c1ccc(-c2ccccc2)cc1	0.986 (inactive)
CCOC(=O)CCCCCCCCCCCCC1C=CCC1 (stereo not given)	0.958 (inactive)
COP(=S)(OC)Oc1ccc(SC)c(C)c1	1.02 (inactive)
